Record form. Attribute: Ki. Fill in for each entry.
- test-target: CCR2 (Homo sapiens, UniProt P41597)
- Construct: THP-1 human monocytic leukemic cell line, which expresses endogenous CCR2; endogenous in cells
- Sequence (P41597 1-360 isoform P41597-2): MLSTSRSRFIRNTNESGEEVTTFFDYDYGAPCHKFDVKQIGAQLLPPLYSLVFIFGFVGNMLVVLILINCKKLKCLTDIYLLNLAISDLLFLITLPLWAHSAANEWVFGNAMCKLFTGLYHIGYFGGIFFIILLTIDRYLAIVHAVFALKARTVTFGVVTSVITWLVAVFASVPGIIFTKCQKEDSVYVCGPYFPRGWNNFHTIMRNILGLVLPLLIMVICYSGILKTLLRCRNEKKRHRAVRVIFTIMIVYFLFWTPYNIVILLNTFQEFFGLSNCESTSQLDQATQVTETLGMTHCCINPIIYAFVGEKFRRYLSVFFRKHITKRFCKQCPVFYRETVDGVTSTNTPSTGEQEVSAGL
- experiment-summary: CCR2 binding (125I-human MCP-1 competition on human PBMC / THP-1 cells)
- run-parameters: n = 1 unless otherwise noted; tested in one of the assays described
Structures can show the parent of a compound that is named as a salt.
Please provide the amount together with its unit, number first.

*Q* Query Ki for COc1cc(C2Oc3ccccc3C=C2C(=O)O)ccc1Cl (racemic) [Example 7-1]
*A* 2900 nM

*Q* Complete the entry with Ki for O=C(O)C1=Cc2ccccc2OC1c1ccc(Br)c(Br)c1 (racemic) [Example 5-17]
*A* 85 nM

*Q* For the molecule O=C(O)C1=Cc2ccccc2OC1c1ccc(C(F)(F)F)c(F)c1 (racemic) [Example 5-18] , report Ki.
*A* 720 nM

*Q* Retrieve Ki measured for O=C(O)C1=Cc2ccccc2OC1c1cccc(Cl)c1 (racemic) [Example 1] and print it.
*A* 2000 nM

*Q* Assign Ki to the following record: O=C(O)C1=Cc2ccccc2OC1c1ccc(Cl)nc1 (racemic) [Example 7-2]
*A* 4500 nM

*Q* Specify Ki for O=C(O)C1=Cc2ccccc2OC1c1ccccn1 (racemic) [Example 5-21] and stop.
*A* 1400 nM

*Q* Identify the reported Ki for the following entry. CC1(c2ccc(Cl)c(Cl)c2)Oc2ccccc2C=C1C(=O)O (racemic) [Example 4-1]
*A* 220 nM

*Q* Tell me its Ki given Cc1cccc(C2Oc3ccccc3C=C2C(=O)O)c1 (racemic) [Example 5-20] as the entry.
*A* 4200 nM

*Q* Determine from records and report Ki for O=C(O)C1=Cc2ccccc2OC1c1ccc2ccccc2n1 (racemic) [Example 5-22]
*A* 2100 nM

*Q* Identify the reported Ki for the following entry. O=C(O)C1=Cc2ccccc2OC1c1ccncc1 (racemic) [Example 5-3, trifluoroacetic acid salt]
*A* 1800 nM

*Q* Supply Ki value. Item: O=C(O)C1=Cc2ccccc2OC1c1ccc(F)c(F)c1 (racemic) [Example 5-11]
*A* 8600 nM

*Q* Note down Ki recorded for O=C(O)C1=Cc2ccccc2OC1c1cccc(Br)c1 (racemic) [Example 5-16]
*A* 1700 nM

*Q* Look up Ki of O=C(O)C1=Cc2ccccc2OC1c1ccc(Br)cc1 (racemic) [Example 5-15] and report it.
*A* 430 nM

*Q* Give a short answer stating reported Ki for O=C(O)C1=Cc2ccccc2OC1c1ccc(C(F)(F)F)cc1 (racemic) [Example 5-10] .
*A* 920 nM

*Q* Note down Ki recorded for O=C(O)C1=Cc2ccccc2OC1c1ccc2ccccc2c1 (racemic) [Example 5-4]
*A* 1800 nM

*Q* Let me know recorded Ki for O=C(O)C1=Cc2ccccc2OC1c1cnc2ccccc2c1 (racemic) [Example 5-23] , thanks.
*A* 4300 nM

*Q* Item COc1ccc(C2Oc3ccccc3C=C2C(=O)O)cc1 (racemic) [Example 2-3] : provide Ki
*A* 5300 nM

*Q* State its Ki for this molecule: O=C(O)C1=Cc2ccccc2OC1c1cccc(C(F)(F)F)c1 (racemic) [Example 5-9]
*A* 1600 nM
